tested.target: T1, huIL-17RA-FLAG-polyHis (human, UniProt Q96F46 33-320)
T1 construct: also called wild-type IL-17RA-FLAG-polyHis; HuIL-17RA-Flag-pHis
measurement.description: Luminex binning; bead huIgG control (f15) + IL-17RA [D00007 Fig. 8B]
property.name: normalized MFI

Worked cases, answers included:
binder	obs.value
AMH8/AML8 (antibody, V domains shown, Fully human mAb from IgG2 XenoMouse hybridomas) VH: QVQLVQSGAEVKKPGASVKVSCKASGNTFTGYGISWVRQAPGQGLEWMGWISAYNGNTNYAQNLQGRVTMTTDTSTSTAYMELRSLRSDDTAVYYCARRDYDILTGYYNGFDPWGQGTLVTVSS VL: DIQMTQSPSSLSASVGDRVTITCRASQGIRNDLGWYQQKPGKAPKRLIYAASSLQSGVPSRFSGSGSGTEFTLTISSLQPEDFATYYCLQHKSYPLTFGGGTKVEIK	54
AMH10/AML10 (antibody, V domains shown, Fully human mAb from IgG2 XenoMouse hybridomas; also called AM-10) VH: QVQLQESGPGLVKPSQTLSLTCTVSGGSISSGGYYWSWIRQHPGKGLEWIGYIYFSGSAYYNPSLKSRVAISVDTSKNQFSLKLSSVTAADTAVYYCAREYYDSSGYPDAFDIWGQGTMVTVSS VL: DIQMTQSPSSVSASVGDRVTITCRASQGIRSWLAWYQQKPGKAPKLLIFAASSLQSGVPSRFSGSGSGTEFTLTISSLQPEDFATYYCQQANNFPRTFGQGTKVEIK	140

I'm hoping you can list normalized MFI for every binder here, please.
1. AMH7/AML7 (antibody, V domains shown, Fully human mAb from IgG2 XenoMouse hybridomas) VH: QVQLVQSGAEVKKPGASVKVSCKASGYTLTRYGISWVRQAPGQGLEWMGWISAYNGNTNYAQKLQGRVTMTTDTSTSTAYMELRSLRSDDTAVYYCARRDYDILTGYYNGFDPWGQGTLVTVSS VL: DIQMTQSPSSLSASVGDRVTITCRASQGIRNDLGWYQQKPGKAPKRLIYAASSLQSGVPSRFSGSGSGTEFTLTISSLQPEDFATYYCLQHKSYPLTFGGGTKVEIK
2. AMH11/AML11 (antibody, V domains shown, Fully human mAb from IgG2 XenoMouse hybridomas) VH: QVQLVESGGGVVQPGRSLRLSCATSGITFSSYGMHWVRQAPGKGLEWVAVIWYDGSNKYYADSVKGRFTISRDNSKNTLYLQMNSLRAEDTAVYYCARDTKDYWGQGTLVTVSS VL: EIVMTQSPATLSVSPGERATLSCRASQSVSSNLAWYQQKPGQAPRLLIYGASTRAAGIPARFSGGGSGTAFTLTISNLQSEDFAVYYCQHYINWPKWTFGQGTKVDIK

123
84
